Values were extracted from ChEMBL document CHEMBL6096696.

- measurement.protocol: Kinetic aqueous solubility of compound in PBS at pH 7.4 by absorbance based analysis
- Assay type: physicochemical
- test.parameters: read-out: Kinetic_solubility
observable: solubility kinetic

Known results for compounds:
>>> df
                            chemical_string          observable    result
0      CCCN1C(=O)COc2ccc(-c3cccc(C)c3C)cc21  solubility kinetic  > 100 µM
1  O=C1COc2ccc(-c3cccc(F)c3)cc2N1Cc1noc(C2CCC2)n1  solubility kinetic     50 µM
2  CC(C)c1cccc(-c2ccc3c(c2)N(Cc2noc(C4CCC4)n2)C(=O)CO3)c1  solubility kinetic  > 100 µM
3  CCCN1C(=O)COc2ccc(NC(=O)c3cccc(Br)c3)cc21  solubility kinetic  > 100 µM
4      CCCN1C(=O)COc2ccc(-c3ccc(F)cc3F)cc21  solubility kinetic  > 100 µM
5  CCCN1C(=O)COc2ccc(NS(=O)(=O)c3ccc(Cl)cc3Cl)cc21  solubility kinetic  > 100 µM
6  CCCN1C(=O)COc2ccc(-c3cccc(OC(F)(F)F)c3)cc21  solubility kinetic  > 100 µM
7  CCCN1C(=O)COc2ccc(S(=O)(=O)Nc3cccc(Cl)c3)cc21  solubility kinetic  > 100 µM

Req: Fill in: solubility kinetic of CCCN1C(=O)COc2ccc(Nc3cccc(C)c3C)cc21 is ___
Resp: > 100 µM

Req: // next record CCCN1C(=O)COc2ccc(S(=O)(=O)NCc3ccccc3)cc21
Resp: > 100 µM

Req: Okay, and CCCN1C(=O)COc2ccc(S(=O)(=O)Nc3cccc(Cl)c3C)cc21 ?
Resp: > 100 µM

Req: And O=C1COc2ccc(-c3ccccc3F)cc2N1Cc1noc(C2CCC2)n1 ?
Resp: > 100 µM

Req: Also need O=C1COc2ccc(Nc3cccc(Cl)c3Cl)cc2N1Cc1noc(C2CCC2)n1 , thanks.
Resp: 25 µM

====

- measurement.protocol: Selectivity ratio of inhibition of C-terminal Nano-luc tagged UVRAG/C-terminal Halo-tagged Beclin 1 (unknown origin) PPI tranfected with HEK293T cells to inhibition of C-terminal Nano-luc tagged ATG14L/C-terminal Halo-tagged Beclin 1 (unknown origin) PPI tranfected with HEK293T cells
observable: Selectivity ratio

Completed entries (count: 4):
>>> print(df.to_string())
                            chemical_string  result
0  COc1ccccc1-c1ccc2c(c1)N(Cc1noc(C3CCC3)n1)C(=O)CO2    1.06
1        CCCN1C(=O)COc2ccc(-c3ccccc3OC)cc21    1.26
2      CCCN1C(=O)COc2ccc(Nc3cccc(Br)c3)cc21    1.14
3  O=C1COc2ccc(Nc3cccc(Cl)c3Cl)cc2N1Cc1noc(C2CCC2)n1    1.25

Req: Can you look up the measured Selectivity ratio of O=C1COc2ccc(-c3ccccc3F)cc2N1Cc1noc(C2CCC2)n1 for me?
Resp: 1.24

Req: Also check CCCN1C(=O)COc2ccc(-c3cccc(OC(F)(F)F)c3)cc21
Resp: 1.22

Req: Cool, now O=C1COc2ccc(-c3cccc(F)c3F)cc2N1Cc1noc(C2CCC2)n1
Resp: 1.11

Req: What do you have for CCCN1C(=O)COc2ccc(-c3ccccc3)cc21 ?
Resp: 1.51

Req: O=C1COc2ccc(-c3cccc(OC(F)(F)F)c3)cc2N1Cc1noc(C2CCC2)n1 ?
Resp: 1.05

Req: What do we get for CCCN1C(=O)COc2ccc(-c3ccncc3)cc21 ?
Resp: 1.03

Req: Try this compound next: CCCN1C(=O)COc2ccc(-c3ccccc3O)cc21
Resp: 1.26

Req: Further, for Cc1cccc(-c2ccc3c(c2)N(Cc2noc(C4CCC4)n2)C(=O)CO3)c1C ?
Resp: 1.3

Req: Now this one: CCCN1C(=O)COc2ccc(Nc3cccc(C)c3C)cc21
Resp: 1.04

Req: Now the same for Cc1cccc(Nc2ccc3c(c2)N(Cc2noc(C4CCC4)n2)C(=O)CO3)c1Cl
Resp: 1.13

Req: // next record O=C1COc2ccc(Nc3ccc(Cl)cc3Cl)cc2N1Cc1noc(C2CCC2)n1
Resp: 1.29

Req: Another compound: O=C1COc2ccc(-c3ccc(F)cc3F)cc2N1Cc1noc(C2CCC2)n1
Resp: 1.14

Req: Would you kindly repeat that for O=C1COc2ccc(-c3ccccc3)cc2N1Cc1noc(C2CCC2)n1 ?
Resp: 1.06

Req: Next record, please: Cc1c(Cl)cccc1Nc1ccc2c(c1)N(Cc1noc(C3CCC3)n1)C(=O)CO2
Resp: 1.4

Req: Another: Cc1c(Cl)cccc1-c1ccc2c(c1)N(Cc1noc(C3CCC3)n1)C(=O)CO2
Resp: 1.5

Req: Also CCCN1C(=O)COc2ccc(-c3cccc(C)c3C)cc21 , if possible.
Resp: 1.23

Req: Repeat with O=C1COc2ccc(-c3ccc(Cl)cc3Cl)cc2N1Cc1noc(C2CCC2)n1
Resp: 1.17
